- target-or-test-system: tankyrase 1 (Homo sapiens, UniProt O95271)
- Construct: purchased Trevigen 4700-096-K
- Sequence (O95271 whole entry): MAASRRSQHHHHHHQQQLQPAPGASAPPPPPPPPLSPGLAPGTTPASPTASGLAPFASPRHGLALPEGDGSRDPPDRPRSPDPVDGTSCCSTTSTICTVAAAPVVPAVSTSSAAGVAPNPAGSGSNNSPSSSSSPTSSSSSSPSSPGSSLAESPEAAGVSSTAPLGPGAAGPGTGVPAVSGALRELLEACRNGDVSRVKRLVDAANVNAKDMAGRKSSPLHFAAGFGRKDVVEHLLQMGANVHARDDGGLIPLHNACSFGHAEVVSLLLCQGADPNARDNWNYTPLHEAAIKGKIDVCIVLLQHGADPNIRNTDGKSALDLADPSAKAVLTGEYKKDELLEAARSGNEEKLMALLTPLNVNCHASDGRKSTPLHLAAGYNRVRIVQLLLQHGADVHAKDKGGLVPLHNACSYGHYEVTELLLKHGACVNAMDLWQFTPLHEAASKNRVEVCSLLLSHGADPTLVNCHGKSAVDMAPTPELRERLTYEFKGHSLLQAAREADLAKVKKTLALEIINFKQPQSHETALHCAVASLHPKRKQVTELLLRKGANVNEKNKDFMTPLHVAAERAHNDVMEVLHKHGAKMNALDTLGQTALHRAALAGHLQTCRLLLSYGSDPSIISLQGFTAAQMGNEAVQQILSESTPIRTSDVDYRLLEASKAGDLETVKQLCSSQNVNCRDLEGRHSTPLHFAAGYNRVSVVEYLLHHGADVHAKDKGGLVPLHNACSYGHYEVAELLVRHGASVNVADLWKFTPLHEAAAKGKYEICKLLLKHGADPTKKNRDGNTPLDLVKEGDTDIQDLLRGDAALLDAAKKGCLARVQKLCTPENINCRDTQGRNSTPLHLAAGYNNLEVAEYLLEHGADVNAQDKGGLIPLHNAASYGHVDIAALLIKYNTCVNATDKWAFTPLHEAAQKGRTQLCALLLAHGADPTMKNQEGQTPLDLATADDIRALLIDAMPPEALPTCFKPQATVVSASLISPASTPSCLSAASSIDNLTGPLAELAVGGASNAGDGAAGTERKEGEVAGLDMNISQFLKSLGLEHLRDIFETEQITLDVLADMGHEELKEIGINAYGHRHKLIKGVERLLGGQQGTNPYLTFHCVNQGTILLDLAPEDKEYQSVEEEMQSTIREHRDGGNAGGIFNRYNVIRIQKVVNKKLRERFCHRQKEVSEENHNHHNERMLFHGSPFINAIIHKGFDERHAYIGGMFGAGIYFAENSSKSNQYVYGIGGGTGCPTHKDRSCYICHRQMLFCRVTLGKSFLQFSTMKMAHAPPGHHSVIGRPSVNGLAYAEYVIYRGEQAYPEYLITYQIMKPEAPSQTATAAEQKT
- experimental-protocol: Analysis of activity of tankyrase 1 (Trevigen kit, ELISA absorbance at 450 nm)
- Assay type: biochemical
- conditions-used: tankyrase 1 enzyme, Trevigen kit Cat. No. 4700-096-K, 30 min at rt; read-out: TNKS1 (IC50)
Structures can show the parent of a compound that is named as a salt.
assay-metric: pIC50
# pIC50 = -log10(concentration in molar units)

// pIC50 lookup, compound = COCCN(C)Cc1cc(F)c(N2CCN(c3cc4c(nnn4C)c(=O)[nH]3)CC2)c(F)c1 , result: 7.40

---
Per the record, COCCCc1cc(F)c(N2CCN(c3nc4c(nnn4C)c(=O)[nH]3)CC2)c(F)c1 has pIC50 of 7.03

pIC50 recorded for this compound, Cn1nnc2c(=O)[nH]c(N3CCN(c4c(F)cc(OCC(=O)N5CCCCC5)cc4F)CC3)nc21 , is 7.31

In plain terms, C[C@@H](N)C(=O)OCCOc1cc(F)c(N2CCN(c3nc4c(nnn4C)c(=O)[nH]3)CC2)c(F)c1 [compound 10, hydrochloride] has a documented pIC50 of 7.49

Lab note: measured pIC50 of C[C@H](N)C(=O)OCCOc1cc(F)c(N2CCN(c3cc4c(nnn4C)c(=O)[nH]3)CC2)c(F)c1 [compound 58, hydrochloride] was 7.87

Entry under test: CN(C)CCOc1cc(F)c(N2CCN(c3nc4c(nnn4C)c(=O)[nH]3)CC2)c(F)c1 . Its pIC50 was 7.79

Reported pIC50 for CC(O)c1cc(F)c(N2CCN(c3cc4c(nnn4C)c(=O)[nH]3)CC2)c(F)c1 (stereo not drawn) was 7.56
